Assignment: determine reported AC50 for the given compounds.

Challenge: Give the reported AC50 for CN1CCN(C2=Nc3ccccc3Oc3ccc(Cl)cc32)CC1 (system: D(3) dopamine receptor (Homo sapiens, UniProt P35462)). Further: assay procedure not described here.
Sequence (P35462 whole entry): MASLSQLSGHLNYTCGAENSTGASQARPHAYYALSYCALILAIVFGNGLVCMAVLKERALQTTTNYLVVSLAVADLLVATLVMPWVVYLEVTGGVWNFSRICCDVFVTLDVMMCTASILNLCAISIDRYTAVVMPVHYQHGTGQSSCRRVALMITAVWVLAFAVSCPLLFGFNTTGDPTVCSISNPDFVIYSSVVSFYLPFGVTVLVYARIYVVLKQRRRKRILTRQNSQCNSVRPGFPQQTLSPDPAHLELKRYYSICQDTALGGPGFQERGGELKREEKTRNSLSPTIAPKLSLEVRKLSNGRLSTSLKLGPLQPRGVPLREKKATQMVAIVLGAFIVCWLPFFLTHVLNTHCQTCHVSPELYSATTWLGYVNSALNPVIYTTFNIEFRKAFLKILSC
Response given: 0.019 µM

Challenge: Give the reported AC50 for O=C1/C(=C2\Nc3ccc(S(=O)(=O)O)cc3C2=O)Nc2ccc(S(=O)(=O)O)cc21 [INDIGOTINDISULFONATE] (system: D(3) dopamine receptor (Homo sapiens, UniProt P35462)). Further: assay procedure not described here.
Response given: > 30 µM

Challenge: Give the reported AC50 for CN1CCC(=C2c3ccccc3Sc3ccccc32)CC1 (system: D(3) dopamine receptor (Homo sapiens, UniProt P35462)). Further: assay procedure not described here.
Response given: 0.0497 µM

Challenge: Give the reported AC50 for Cc1cc(NC(=O)C2=C(O)c3ccccc3S(=O)(=O)N2C)no1 (system: D(3) dopamine receptor (Homo sapiens, UniProt P35462)). Further: assay procedure not described here.
Response given: > 30 µM

Challenge: Give the reported AC50 for CCOC(=O)[C@H](CCc1ccccc1)N[C@@H](C)C(=O)N(CC(=O)O)C1Cc2ccccc2C1 (system: D(3) dopamine receptor (Homo sapiens, UniProt P35462)). Further: assay procedure not described here.
Response given: > 30 µM

Challenge: Give the reported AC50 for C[C@H](Cc1cc2c(c(C(N)=O)c1)N(CCCO)CC2)NCCOc1ccccc1OCC(F)(F)F (system: D(3) dopamine receptor (Homo sapiens, UniProt P35462)). Further: assay procedure not described here.
Response given: 0.0483 µM

Challenge: Give the reported AC50 for Cc1ncc(COP(=O)(O)O)c(C=O)c1O [PYRIDOXAL PHOSPHATE ANHYDROUS] (system: D(3) dopamine receptor (Homo sapiens, UniProt P35462)). Further: assay procedure not described here.
Response given: > 30 µM

Challenge: Give the reported AC50 for COc1c2ccoc2cc2oc(=O)ccc12 (system: D(3) dopamine receptor (Homo sapiens, UniProt P35462)). Further: assay procedure not described here.
Response given: > 30 µM

Challenge: Give the reported AC50 for CC(C)N(CCNC(=O)CN1CCCC1=O)C(C)C (system: D(3) dopamine receptor (Homo sapiens, UniProt P35462)). Further: assay procedure not described here.
Response given: > 30 µM

* * *

- MEASURED ON: Amine oxidase [flavin-containing] A (Homo sapiens, UniProt P21397)
- Sequence (P21397 whole entry): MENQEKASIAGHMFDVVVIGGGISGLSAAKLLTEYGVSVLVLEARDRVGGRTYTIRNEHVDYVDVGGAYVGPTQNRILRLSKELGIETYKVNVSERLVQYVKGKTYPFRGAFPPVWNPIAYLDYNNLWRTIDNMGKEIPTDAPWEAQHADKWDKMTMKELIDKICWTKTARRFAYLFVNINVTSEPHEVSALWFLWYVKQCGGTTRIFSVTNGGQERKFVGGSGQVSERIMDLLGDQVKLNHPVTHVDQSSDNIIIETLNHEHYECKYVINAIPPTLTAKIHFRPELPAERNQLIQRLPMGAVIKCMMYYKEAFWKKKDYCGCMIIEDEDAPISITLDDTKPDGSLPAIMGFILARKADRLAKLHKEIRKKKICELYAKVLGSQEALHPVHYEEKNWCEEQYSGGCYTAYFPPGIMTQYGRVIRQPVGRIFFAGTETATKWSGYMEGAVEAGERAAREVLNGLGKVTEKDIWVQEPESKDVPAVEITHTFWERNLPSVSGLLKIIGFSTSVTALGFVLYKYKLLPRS
- Format: functional
MEASURED METRIC: AC50

Challenge: Give the reported AC50 for CC(C)(C)C(=O)OCC(=O)[C@H]1CC[C@H]2[C@@H]3CCC4=CC(=O)CC[C@]4(C)[C@H]3CC[C@]12C [DESOXYCORTICOSTERONE PIVALATE] (system: Amine oxidase [flavin-containing] A (Homo sapiens, UniProt P21397)). Further: assay procedure not described here.
Response given: > 10 µM

Challenge: Give the reported AC50 for C/N=C(\NC)NCc1ccccc1 [BETHANIDINE] (system: Amine oxidase [flavin-containing] A (Homo sapiens, UniProt P21397)). Further: assay procedure not described here.
Response given: > 30 µM

Challenge: Give the reported AC50 for C[C@H]1c2cccc(O)c2C(=O)C2=C(O)[C@]3(O)C(=O)C(C(N)=O)=C(O)[C@@H](N(C)C)[C@@H]3[C@@H](O)[C@@H]21 [DOXYCYCLINE] (system: Amine oxidase [flavin-containing] A (Homo sapiens, UniProt P21397)). Further: assay procedure not described here.
Response given: > 10 µM

Challenge: Give the reported AC50 for Cc1cc2cc3c(C)cc(=O)oc3c(C)c2o1 [TRIOXSALEN] (system: Amine oxidase [flavin-containing] A (Homo sapiens, UniProt P21397)). Further: assay procedure not described here.
Response given: 0.72 µM

Challenge: Give the reported AC50 for CCCCC1C(=O)N(c2ccccc2)N(c2ccccc2)C1=O [PHENYLBUTAZONE] (system: Amine oxidase [flavin-containing] A (Homo sapiens, UniProt P21397)). Further: assay procedure not described here.
Response given: > 10 µM

Challenge: Give the reported AC50 for CCN(CC)CCNC(=O)c1cc(S(C)(=O)=O)ccc1OC [TIAPRIDE] (system: Amine oxidase [flavin-containing] A (Homo sapiens, UniProt P21397)). Further: assay procedure not described here.
Response given: > 30 µM

Challenge: Give the reported AC50 for CCC(=O)O[C@]1(C(=O)SCF)[C@H](C)C[C@H]2[C@@H]3C[C@H](F)C4=CC(=O)C=C[C@]4(C)[C@@]3(F)[C@@H](O)C[C@@]21C [FLUTICASONE PROPIONATE] (system: Amine oxidase [flavin-containing] A (Homo sapiens, UniProt P21397)). Further: assay procedure not described here.
Response given: > 30 µM

Challenge: Give the reported AC50 for CCCC(CCC)C(N)=O [VALPROMIDE] (system: Amine oxidase [flavin-containing] A (Homo sapiens, UniProt P21397)). Further: assay procedure not described here.
Response given: > 10 µM

Challenge: Give the reported AC50 for CC(CCc1ccc(O)cc1)NCCc1ccc(O)c(O)c1 (centres undefined) [DOBUTAMINE] (system: Amine oxidase [flavin-containing] A (Homo sapiens, UniProt P21397)). Further: assay procedure not described here.
Response given: > 30 µM

Challenge: Give the reported AC50 for CC1OC2(CS1)CN1CCC2CC1 (centres undefined) [CEVIMELINE] (system: Amine oxidase [flavin-containing] A (Homo sapiens, UniProt P21397)). Further: assay procedure not described here.
Response given: > 30 µM

Challenge: Give the reported AC50 for CCCN(CCC)C(=O)Cc1c(-c2ccc(Cl)cc2)nc2ccc(Cl)cn12 [ALPIDEM] (system: Amine oxidase [flavin-containing] A (Homo sapiens, UniProt P21397)). Further: assay procedure not described here.
Response given: > 30 µM

Challenge: Give the reported AC50 for CCC(C)C(CC)C(N)=O (centres undefined) [VALNOCTAMIDE] (system: Amine oxidase [flavin-containing] A (Homo sapiens, UniProt P21397)). Further: assay procedure not described here.
Response given: > 30 µM

Challenge: Give the reported AC50 for CC(C)N(CCC(C(N)=O)(c1ccccc1)c1ccccn1)C(C)C (centres undefined) [DISOPYRAMIDE] (system: Amine oxidase [flavin-containing] A (Homo sapiens, UniProt P21397)). Further: assay procedure not described here.
Response given: > 10 µM

Challenge: Give the reported AC50 for Cc1onc(-c2ccccc2)c1-c1ccc(S(N)(=O)=O)cc1 [VALDECOXIB] (system: Amine oxidase [flavin-containing] A (Homo sapiens, UniProt P21397)). Further: assay procedure not described here.
Response given: > 10 µM

Challenge: Give the reported AC50 for CC(C)[C@H](N)C(=O)OCC(CO)OCn1cnc2c(=O)nc(N)[nH]c21 (some centres undefined) [VALGANCICLOVIR] (system: Amine oxidase [flavin-containing] A (Homo sapiens, UniProt P21397)). Further: assay procedure not described here.
Response given: > 30 µM

Challenge: Give the reported AC50 for O=C1CN(/N=C/c2ccc(-c3ccc([N+](=O)[O-])cc3)o2)C(O)=N1 [DANTROLENE] (system: Amine oxidase [flavin-containing] A (Homo sapiens, UniProt P21397)). Further: assay procedure not described here.
Response given: > 10 µM

Challenge: Give the reported AC50 for Clc1ccc(C(Cn2ccnc2)OCc2ccsc2Cl)c(Cl)c1 (centres undefined) [TIOCONAZOLE] (system: Amine oxidase [flavin-containing] A (Homo sapiens, UniProt P21397)). Further: assay procedure not described here.
Response given: > 30 µM

Challenge: Give the reported AC50 for CC(S)C(=O)NCC(=O)O (centres undefined) [TIOPRONIN] (system: Amine oxidase [flavin-containing] A (Homo sapiens, UniProt P21397)). Further: assay procedure not described here.
Response given: > 30 µM

Challenge: Give the reported AC50 for CCOC(=O)c1cncn1[C@H](C)c1ccccc1 [ETOMIDATE] (system: Amine oxidase [flavin-containing] A (Homo sapiens, UniProt P21397)). Further: assay procedure not described here.
Response given: > 10 µM

Challenge: Give the reported AC50 for CCCCCC(=O)O[C@]1(C(C)=O)CC[C@H]2[C@@H]3CCC4=CC(=O)CC[C@]4(C)[C@H]3CC[C@@]21C [HYDROXYPROGESTERONE CAPROATE] (system: Amine oxidase [flavin-containing] A (Homo sapiens, UniProt P21397)). Further: assay procedure not described here.
Response given: > 30 µM

Challenge: Give the reported AC50 for C=CCNc1nc(NCC=C)nc(N2CCN(C(c3ccc(F)cc3)c3ccc(F)cc3)CC2)n1 [ALMITRINE] (system: Amine oxidase [flavin-containing] A (Homo sapiens, UniProt P21397)). Further: assay procedure not described here.
Response given: > 30 µM

Challenge: Give the reported AC50 for C=C1/C(=C\C=C2/CCC[C@]3(C)[C@@H]([C@H](C)/C=C/[C@@H](O)C4CC4)CC[C@@H]23)C[C@@H](O)C[C@@H]1O [CALCIPOTRIENE] (system: Amine oxidase [flavin-containing] A (Homo sapiens, UniProt P21397)). Further: assay procedure not described here.
Response given: > 30 µM

Challenge: Give the reported AC50 for C#CCOc1ccc(N)cc1C(=O)NCCCC [PARSALMIDE] (system: Amine oxidase [flavin-containing] A (Homo sapiens, UniProt P21397)). Further: assay procedure not described here.
Response given: > 30 µM

Challenge: Give the reported AC50 for CCN(CC)CCNC(=O)c1c(C)[nH]c(/C=C2\C(=O)Nc3ccc(F)cc32)c1C [SUNITINIB] (system: Amine oxidase [flavin-containing] A (Homo sapiens, UniProt P21397)). Further: assay procedure not described here.
Response given: > 30 µM

Challenge: Give the reported AC50 for CC12CC3CC(C)(C1)CC(N)(C3)C2 [MEMANTINE] (system: Amine oxidase [flavin-containing] A (Homo sapiens, UniProt P21397)). Further: assay procedure not described here.
Response given: > 10 µM

Challenge: Give the reported AC50 for CCN(CC)CCN1C(=O)CN=C(c2ccccc2F)c2cc(Cl)ccc21 [FLURAZEPAM] (system: Amine oxidase [flavin-containing] A (Homo sapiens, UniProt P21397)). Further: assay procedure not described here.
Response given: > 10 µM

Challenge: Give the reported AC50 for C=C[C@H]1C[N@@]2CC[C@H]1C[C@@H]2[C@@H](O)c1ccnc2ccc(OC)cc12 [QUINIDINE] (system: Amine oxidase [flavin-containing] A (Homo sapiens, UniProt P21397)). Further: assay procedure not described here.
Response given: > 10 µM

Challenge: Give the reported AC50 for C[C@@H](Oc1cc(-c2cnn(C3CCNCC3)c2)cnc1N)c1c(Cl)ccc(F)c1Cl [CRIZOTINIB] (system: Amine oxidase [flavin-containing] A (Homo sapiens, UniProt P21397)). Further: assay procedure not described here.
Response given: 30 µM

Challenge: Give the reported AC50 for CC[C@@H]([C@H](C)O)n1ncn(-c2ccc(N3CCN(c4ccc(OC[C@@H]5CO[C@@](Cn6cncn6)(c6ccc(F)cc6F)C5)cc4)CC3)cc2)c1=O [POSACONAZOLE] (system: Amine oxidase [flavin-containing] A (Homo sapiens, UniProt P21397)). Further: assay procedure not described here.
Response given: > 30 µM

Challenge: Give the reported AC50 for O=C1CN=C(c2ccccn2)c2cc(Br)ccc2N1 [BROMAZEPAM] (system: Amine oxidase [flavin-containing] A (Homo sapiens, UniProt P21397)). Further: assay procedure not described here.
Response given: > 10 µM

Challenge: Give the reported AC50 for CCOC(=O)C1=C(C)NC(C)=C(C(=O)OC)C1c1cccc([N+](=O)[O-])c1 (centres undefined) [NITRENDIPINE] (system: Amine oxidase [flavin-containing] A (Homo sapiens, UniProt P21397)). Further: assay procedure not described here.
Response given: > 10 µM

Challenge: Give the reported AC50 for C#C[C@]1(OC(C)=O)CC[C@H]2[C@@H]3CCC4=C/C(=N/O)CC[C@@H]4[C@H]3CC[C@@]21CC [NORGESTIMATE] (system: Amine oxidase [flavin-containing] A (Homo sapiens, UniProt P21397)). Further: assay procedure not described here.
Response given: > 30 µM

Challenge: Give the reported AC50 for CC(=O)OCC(=O)[C@@]1(O)[C@H](C)C[C@H]2[C@@H]3CCC4=CC(=O)C=C[C@]4(C)[C@@]3(F)[C@@H](O)C[C@@]21C [DEXAMETHASONE ACETATE] (system: Amine oxidase [flavin-containing] A (Homo sapiens, UniProt P21397)). Further: assay procedure not described here.
Response given: > 10 µM

Challenge: Give the reported AC50 for CC(C)c1nc(N(C)S(C)(=O)=O)nc(-c2ccc(F)cc2)c1/C=C/[C@@H](O)C[C@@H](O)CC(=O)O [ROSUVASTATIN] (system: Amine oxidase [flavin-containing] A (Homo sapiens, UniProt P21397)). Further: assay procedure not described here.
Response given: > 30 µM
